Below are pIC50 values recorded for human CTPS1 (Homo sapiens (Human), UniProt P17812).
pIC50: −log10 of the molar value.

Prompt line: Give pIC50 for CCn1ncc2ncc(-c3cnc(C(=O)NCc4cc(NS(=O)(=O)C5CC5)ccn4)s3)nc21 [I-149]
Response line: ≤ 6.00

Prompt line: Give pIC50 for Cc1nc(C(=O)NCc2cc(NS(=O)(=O)C3CC3)ccn2)cnc1N1CCC[C@@H](C(F)(F)F)C1 [I-55]
Response line: 6.00 to 7.00

Prompt line: Give pIC50 for CCOc1cncc(-c2cnc(C(=O)N[C@H](c3cc(NS(=O)(=O)C4CC4)ccn3)[C@@H]3CCOC3)s2)n1 (single isomer, unassigned) [I-94]
Response line: > 7.00

Prompt line: Give pIC50 for CCOc1cncc(-c2cnc(C(=O)N[C@H](c3cc(NS(=O)(=O)C4CC4)ccn3)[C@H]3C[C@H](N(C)C)C3)s2)n1 (single isomer, unassigned) [I-106]
Response line: > 7.00

---

pIC50: −log10 of the molar value.
Below are pIC50 values recorded for human CTPS1 (Homo sapiens (Human)).

Prompt line: Give pIC50 for CCOc1cncc(-c2cnc(C(=O)NCc3cc(NS(=O)(=O)C4CC4)ccn3)s2)n1 [I-50]
Response line: > 7.00

Prompt line: Give pIC50 for CCOc1cncc(-c2ccc(C(=O)NCc3cc(NS(=O)(=O)C4CC4)ccn3)c(F)c2)n1 [I-25]
Response line: > 7.00

Prompt line: Give pIC50 for CCOc1cncc(-c2cnc(C(=O)N[C@H](CN3CCCCC3)c3cc(NS(=O)(=O)C4CC4)ccn3)s2)n1 (single isomer, unassigned) [I-213]
Response line: > 7.00

---

Exercise: state measured pIC50 for each of the compounds provided.
pIC50: −log10 of the molar value.

Prompt line: System UniProt:P17812. Read-out pIC50. Item CCOc1cncc(-c2cnc(C(=O)N3CCC[C@@H]3c3ccnc(NS(=O)(=O)C4CC4)n3)s2)n1 . Report value.
Response line: 6.00 to 7.00

Prompt line: System UniProt:P17812. Read-out pIC50. Item CCOc1cncc(-c2ccc(NC(=O)[C@@](F)(CC)c3cc(NS(=O)(=O)C4CC4)ccn3)nc2)n1 . Report value.
Response line: > 7.00

Prompt line: System UniProt:P17812. Read-out pIC50. Item CCOc1cncc(-c2ccc(C(=O)NCc3cncc(NS(=O)(=O)C4CC4)c3)nc2)n1 . Report value.
Response line: > 7.00

Prompt line: System UniProt:P17812. Read-out pIC50. Item O=C(NCc1cc(NS(=O)(=O)C2CC2)ccn1)c1ncc(-n2cnc3ccc(Cl)cc32)s1 . Report value.
Response line: 6.00 to 7.00

Prompt line: System UniProt:P17812. Read-out pIC50. Item CCOc1cncc(-c2ccc(C(=O)NCc3cnnc(NS(=O)(=O)C4CC4)c3)nc2)n1 . Report value.
Response line: > 7.00

Prompt line: System UniProt:P17812. Read-out pIC50. Item CCOc1cncc(-c2cnc(C(=O)N[C@H](CCN3CCOCC3)c3cc(NS(=O)(=O)C4CC4)ccn3)s2)n1 . Report value.
Response line: > 7.00

Prompt line: System UniProt:P17812. Read-out pIC50. Item CCOc1cncc(-c2cnc(C(=O)NC(CN3CC(F)C3)c3cc(NS(=O)(=O)C4CC4)ccn3)s2)n1 (centres unmarked) . Report value.
Response line: > 7.00

Prompt line: System UniProt:P17812. Read-out pIC50. Item CCOc1cncc(-n2cc(C(=O)NC3(c4cccc(NS(=O)(=O)C(F)F)c4)CC3)cn2)n1 . Report value.
Response line: > 7.00

Prompt line: System UniProt:P17812. Read-out pIC50. Item CCC[C@@H]1CCN1c1ncc(C(=O)NCc2cc(NS(=O)(=O)C3CC3)ccn2)nc1C . Report value.
Response line: ≤ 6.00

Prompt line: System UniProt:P17812. Read-out pIC50. Item CCOc1cncc(-c2ccc(NC(=O)[C@](F)(CC)c3cc(NS(=O)(=O)C4CC4)ccn3)nc2)n1 . Report value.
Response line: > 7.00

Prompt line: System UniProt:P17812. Read-out pIC50. Item O=C(NCc1cc(NS(=O)(=O)C2CC2)ccn1)c1ncc(-c2cncc3c(Cl)cnn23)s1 . Report value.
Response line: > 7.00

Prompt line: System UniProt:P17812. Read-out pIC50. Item CCOc1cncc(-c2cnc(C(=O)N[C@H](CC3CCN(C)CC3)c3cc(NS(=O)(=O)C4CC4)ccn3)s2)n1 . Report value.
Response line: > 7.00

Prompt line: System UniProt:P17812. Read-out pIC50. Item O=C(NCc1cc(NS(=O)(=O)C2CC2)ccn1)c1ncc(-c2cncc(C(F)(F)F)n2)s1 . Report value.
Response line: > 7.00

Prompt line: System UniProt:P17812. Read-out pIC50. Item CCOc1cncc(-c2ccc(C(=O)NCc3cccc(NS(=O)(=O)C4CC4)c3)nc2)n1 . Report value.
Response line: 6.00 to 7.00

Hey, just so you know, these numbers are from patent US12331046B2.
